Entry source: patent US20250122306A1

subject.of.test: T1, human tissue factor on cells (human, UniProt P13726 33-295)
T1 construct: cell-surface TF, transfected (HEK293T-humanTF) or endogenous (tumour lines, keratinocytes); the cell line is named under assay; also called HEK293T-humanTF; TF on BxPC3, primary human keratinocytes, NCI-H292, HCC1954, NCI-H1975
run.description: flow cytometry on HEK293T-humanTF cells, one-site fit of MFI
value.kind: Bmax (MFI)
State the answer as a number, implicitly in MFI.

Record mAb 47: aTF_2842-B01_HC3_Y180/F404TAG; aTF_2842-B01_LC1 (antibody, IgG1, V domains shown, non-natural amino acid (pAMF) at TAG sites Y180 and F404 (EU), * in the sequence, unconjugated full-length IgG1/kappa; also called 2842-B01 HC3/LC1) VH: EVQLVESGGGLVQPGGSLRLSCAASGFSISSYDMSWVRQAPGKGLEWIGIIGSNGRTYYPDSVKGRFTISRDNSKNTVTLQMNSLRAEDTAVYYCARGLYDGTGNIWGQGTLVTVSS VL: DLQMTQSPSSLSASVGDRVTITCRASQSVYGNNWLSWYQQKPGKAPKLLIYGASKLASGVPSRFSGSGSGTQFTLTISSLQPEDFATYYCQGTYYSGDWYFAFGQGTKVEIKR . Reported Bmax (MFI): 351000
